- Tgt: the molecule itself
- Protocol notes: 2D crystallisation on lipid monolayers, negative-stain TEM

Protein	binding result
AnxA5 single mutant K191E (natural protein, rat) ALRGTVTDFSGFDGRADAEVLRKAMKGLGTDEDSILNLLTARSNAQRQQIAEEFKTLFGRDLVNDMKSELTGKFEKLIVALMKPSRLYDAYELKHALKGAGTDEKVLTEIIASRTPEELRAIKQAYEEEYGSNLEDDVVGDTSGYYQRMLVVLLQANRDPDTAIDDAQVELDAQALFQAGELKWGTDEEEFITILGTRSVSHLRRVFDKYMTISGFQIEETIDRETSGNLENLLLAVVKSIRSIPAYLAETLYYAMKGAGTDDHTLIRVIVSRSEIDLFNIRKEFRKNFATSLYSMIKGDTSGDYKKALLLLCGGEDD	binds
